A collection of compounds and their measured RLU (% with TNFα)
# Test system: NF-κB signaling pathway
# EXPERIMENT_DESCRIPTION: NF-κB-dependent luciferase activity in NF-κB/293/GFP-Luc cells treated with TNF-α
# Format: cell-based
# PROTOCOL_CONDITIONS: MLY compounds; TNF-α 10 ng/ml, 18 hours
METRIC: RLU (% with TNFα) (%)

COMPOUND: CCCCCC(CC(=O)CCc1ccc(O)c(OC)c1)SC[C@H](NC(=O)[C@@H](N)CCC(=O)O)C(=O)N[C@H](C(=O)O)[C@@H](C)CC (stereo partly shown)
MEASUREMENT_TARGET: NF-κB signaling pathway
RECORDED_VALUE: 68.19
--
COMPOUND: CCCCCC(CC(=O)CCc1ccc(O)c(OC)c1)SC[C@H](NC(=O)[C@@H](N)CC(=O)O)C(=O)N1CCC[C@H]1C(=O)O (stereo partly shown)
MEASUREMENT_TARGET: NF-κB signaling pathway
RECORDED_VALUE: 92.85
--
COMPOUND: CCCCCC(CC(=O)CCc1ccc(O)c(OC)c1)SC[C@H](NC(=O)[C@@H](N)CC(=O)O)C(=O)N[C@@H](Cc1ccccc1)C(=O)O (stereo partly shown)
MEASUREMENT_TARGET: NF-κB signaling pathway
RECORDED_VALUE: 50.7
--
COMPOUND: CCCCCC(CC(=O)CCc1ccc(O)c(OC)c1)SC[C@H](NC(=O)[C@@H](N)CC(=O)O)C(=O)N[C@@H](Cc1c[nH]c2ccccc12)C(=O)O (stereo partly shown)
MEASUREMENT_TARGET: NF-κB signaling pathway
RECORDED_VALUE: 24.75
